Tested on: SW982 (Other Solid Carcinomas)
Protocol notes: combination Emax (second highest fraction inhibited in the dose matrix, 72 h); higher = more inhibition; extreme values may be limits of the assay
combination Emax: recorded values
Reply briefly: the number, and no unit.

NC1(C(=O)N[C@@H](CCO)c2ccc(Cl)cc2)CCN(c2ncnc3[nH]ccc23)CC1 [Capivasertib] + CC(=O)c1c(C)c2cnc(Nc3ccc(N4CCNCC4)cn3)nc2n(C2CCCC2)c1=O [Palbociclib] (first compound max 10 µM, 7x7, partner max 10 µM) = 0.607
Cc1c2c(nn1C)CSCc1cc(n(C)n1)CSc1cc(c3ccccc3c1)OCCCc1c(C(=O)O)n(C)c3c-2c(Cl)ccc13 [AZD5991] + Cc1cc2ncnn2cc1Nc1ncc2c(n1)n(C1CCOCC1)c(=O)n2C [AZD7648] (first compound max 1 µM, 7x7, partner max 10 µM) = 0.371

Please examine the following record next.
Query :: Note down combination Emax recorded for CC1(C)CCC(CN2CCN(c3ccc(C(=O)NS(=O)(=O)c4ccc(NCC5CCOCC5)c([N+](=O)[O-])c4)c(Oc4cnc5[nH]ccc5c4)c3)CC2)=C(c2ccc(Cl)cc2)C1 [Venetoclax] + C=CCn1c(=O)c2cnc(Nc3ccc(N4CCN(C)CC4)cc3)nc2n1-c1cccc(C(C)(C)O)n1 [AZD1775] (first compound max 1 µM, partner max 1 µM)
Result :: 0.742

###

Test system: SK-N-AS (Neuroblastoma)
Protocol notes: combination Emax (second highest fraction inhibited in the dose matrix, 72 h); higher = more inhibition; extreme values may be limits of the assay
Please mark 1 if the recorded combination Emax is equal to or greater than 0.5, and -1 if it falls below.

A selection of reference data follows.
CS(=O)(=O)CCNCc1ccc(-c2ccc3ncnc(Nc4ccc(OCc5cccc(F)c5)c(Cl)c4)c3c2)o1 [Lapatinib] + Cn1cnc2c(F)c(Nc3ccc(Br)cc3Cl)c(C(=O)NOCCO)cc21 [Selumetinib] (first compound max 10 µM, 7x7, partner max 10 µM) = -1
Cc1nc(Nc2ncc(C(=O)Nc3c(C)cccc3Cl)s2)cc(N2CCN(CCO)CC2)n1 [Dasatinib] + CC(=O)Nc1cccc(-n2c(=O)n(C3CC3)c(=O)c3c(Nc4ccc(I)cc4F)n(C)c(=O)c(C)c32)c1 [Trametinib] (first compound max 2 µM, 7x7, partner max 1 µM) = 1
C[C@@H](c1ccc2nccn2c1)n1nnc2ncc(-c3cnn(C)c3)nc21 [Savolitinib] + Cc1c2c(nn1C)CSCc1cc(n(C)n1)CSc1cc(c3ccccc3c1)OCCCc1c(C(=O)O)n(C)c3c-2c(Cl)ccc13 [AZD5991] (first compound max 1 µM, 7x7, partner max 1 µM) = -1
NC1(C(=O)N[C@@H](CCO)c2ccc(Cl)cc2)CCN(c2ncnc3[nH]ccc23)CC1 [Capivasertib] + CC(=O)c1c(C)c2cnc(Nc3ccc(N4CCNCC4)cn3)nc2n(C2CCCC2)c1=O [Palbociclib] (first compound max 10 µM, 7x7, partner max 10 µM) = -1
CC(=O)c1c(C)c2cnc(Nc3ccc(N4CCNCC4)cn3)nc2n(C2CCCC2)c1=O [Palbociclib] + Cc1c2c(nn1C)CSCc1cc(n(C)n1)CSc1cc(c3ccccc3c1)OCCCc1c(C(=O)O)n(C)c3c-2c(Cl)ccc13 [AZD5991] (first compound max 10 µM, 7x7, partner max 1 µM) = -1

Query :: Is combination Emax at least 0.5? Consider COc1nnc2ccc(N3CCC(c4ccc(OCCN5CCN(C)C(=O)[C@H]5C)cc4)CC3)nn12 [AZD5153] + CCN(CCO)CCCOc1ccc2c(Nc3cc(CC(=O)Nc4cccc(F)c4)[nH]n3)ncnc2c1 [AZD2811] (first compound max 1 µM, 7x7, partner max 1 µM)
Result :: -1

Query :: Is combination Emax at least 0.5? Consider CCN(CCO)CCCOc1ccc2c(Nc3cc(CC(=O)Nc4cccc(F)c4)[nH]n3)ncnc2c1 [AZD2811] + C[C@@H]1COCCN1C2=NC(=NC(=C2)C3(CC3)[S@](=N)(=O)C)C4=C5C=CNC5=NC=C4 [AZD6738] (first compound max 1 µM, 7x7, partner max 10 µM)
Result :: 1

###

Tested on: NCI-H650 (Lung Adenocarcinoma)
Protocol notes: combination Emax (second highest fraction inhibited in the dose matrix, 72 h); higher = more inhibition; extreme values may be limits of the assay
combination Emax: recorded values

CC1(C)CCC(CN2CCN(c3ccc(C(=O)NS(=O)(=O)c4ccc(NCC5CCOCC5)c([N+](=O)[O-])c4)c(Oc4cnc5[nH]ccc5c4)c3)CC2)=C(c2ccc(Cl)cc2)C1 [Venetoclax] + COc1cc(Nc2ncc3c(n2)-c2ccc(Cl)cc2C(c2c(F)cccc2OC)=NC3)ccc1C(=O)O [Alisertib] (first compound max 1 µM, 7x7, partner max 10 µM) = 0.319

Query :: Note down combination Emax recorded for CN(C)CCCOc1ccc(-c2ccc3ncc4c(c3c2)n(C2CCOCC2)c(=O)n4C)cn1 [AZD0156] + C=CCn1c(=O)c2cnc(Nc3ccc(N4CCN(C)CC4)cc3)nc2n1-c1cccc(C(C)(C)O)n1 [AZD1775] (first compound max 1 µM, partner max 1 µM)
Result :: 0.263

###

System: HCC2998 (Colorectal Carcinoma)
Protocol notes: Bliss excess, mean over the matrix (fraction); higher = more synergy
Bliss excess: recorded values
Reply briefly: the number, and no unit.

CC1(C)CCC(CN2CCN(c3ccc(C(=O)NS(=O)(=O)c4ccc(NCC5CCOCC5)c([N+](=O)[O-])c4)c(Oc4cnc5[nH]ccc5c4)c3)CC2)=C(c2ccc(Cl)cc2)C1 [Venetoclax] + Cc1cc2ncnn2cc1Nc1ncc2c(n1)n(C1CCOCC1)c(=O)n2C [AZD7648] (first compound max 1 µM, 7x7, partner max 10 µM) = -0.0314

Please examine the following record next.
Query :: Note down Bliss excess recorded for Cc1cc2ncnn2cc1Nc1ncc2c(n1)n(C1CCOCC1)c(=O)n2C [AZD7648] + CN(C)CCCOc1ccc(-c2ccc3ncc4c(c3c2)n(C2CCOCC2)c(=O)n4C)cn1 [AZD0156] (first compound max 10 µM, 7x7, partner max 1 µM)
Result :: 0.0329

###

Test system: NCI-H2122 (Lung Adenocarcinoma)
Protocol notes: Bliss excess, mean over the matrix (fraction); higher = more synergy
Experimental readout: Bliss excess
Reply briefly: the number, and no unit.

Query :: Note down Bliss excess recorded for CC1(C)CCC(CN2CCN(c3ccc(C(=O)NS(=O)(=O)c4ccc(NCC5CCOCC5)c([N+](=O)[O-])c4)c(Oc4cnc5[nH]ccc5c4)c3)CC2)=C(c2ccc(Cl)cc2)C1 [Venetoclax] + CCN(CCO)CCCOc1ccc2c(Nc3cc(CC(=O)Nc4cccc(F)c4)[nH]n3)ncnc2c1 [AZD2811] (first compound max 1 µM, 7x7, partner max 1 µM)
Result :: -0.0579

Query :: Note down Bliss excess recorded for Cc1cc2ncnn2cc1Nc1ncc2c(n1)n(C1CCOCC1)c(=O)n2C [AZD7648] + CCN(CCO)CCCOc1ccc2c(Nc3cc(CC(=O)Nc4cccc(F)c4)[nH]n3)ncnc2c1 [AZD2811] (first compound max 10 µM, 7x7, partner max 1 µM)
Result :: 0.0547

Query :: Note down Bliss excess recorded for COc1nnc2ccc(N3CCC(c4ccc(OCCN5CCN(C)C(=O)[C@H]5C)cc4)CC3)nn12 [AZD5153] + CCN(CCO)CCCOc1ccc2c(Nc3cc(CC(=O)Nc4cccc(F)c4)[nH]n3)ncnc2c1 [AZD2811] (first compound max 1 µM, 7x7, partner max 1 µM)
Result :: -0.08

Query :: Note down Bliss excess recorded for C[C@@H]1COCCN1c1cc(C2([S@](C)(=N)=O)CC2)nc(-c2ccnc3[nH]ccc23)n1 [AZD6738] + O=C(c1cc(Cc2n[nH]c(=O)c3ccccc23)ccc1F)N1CCN(C(=O)C2CC2)CC1 [Olaparib] (first compound max 10 µM, 7x7, partner max 10 µM)
Result :: -0.0303

###

combination Emax: recorded values
Test system: MV-4-11 (Acute Myeloid Leukemia)
Protocol notes: combination Emax (second highest fraction inhibited in the dose matrix, 72 h); higher = more inhibition; extreme values may be limits of the assay
Reply briefly: the number, and no unit.

Use these answered entries as a reference point.
NC1(C(=O)N[C@@H](CCO)c2ccc(Cl)cc2)CCN(c2ncnc3[nH]ccc23)CC1 [Capivasertib] + Cn1cnc2c(F)c(Nc3ccc(Br)cc3Cl)c(C(=O)NOCCO)cc21 [Selumetinib] (first compound max 10 µM, 7x7, partner max 10 µM) = 0.881
C[C@@H](Nc1cc(F)cc(F)c1)c1cc(C(=O)N(C)C)cc2c(=O)cc(N3CCOCC3)oc12 [AZD8186] + C1CN(CCC1(C(=O)N[C@@H](CCO)C2=CC=C(C=C2)Cl)N)C3=NC=NC4=C3C=CN4 [AZD5363] (first compound max 10 µM, 7x7, partner max 10 µM) = 0.731
C[C@@H](Oc1cc(-c2cnn(C3CCNCC3)c2)cnc1N)c1c(Cl)ccc(F)c1Cl [Crizotinib] + Cn1cnc2c(F)c(Nc3ccc(Br)cc3Cl)c(C(=O)NOCCO)cc21 [Selumetinib] (first compound max 10 µM, 7x7, partner max 10 µM) = 1

Please examine the following record next.
Query :: Note down combination Emax recorded for C=CCn1c(=O)c2cnc(Nc3ccc(N4CCN(C)CC4)cc3)nc2n1-c1cccc(C(C)(C)O)n1 [AZD1775] + Nc1ccn([C@@H]2O[C@H](CO)[C@@H](O)C2(F)F)c(=O)n1 [Gemcitabine] (first compound max 1 µM, partner max 0.3 µM)
Result :: 1
